assay text: Mouse pharmacokinetics after oral gavage, plasma drug concentration by LC-MS/MS (BALB/c)
Type: in vivo
assay conditions: mouse, plasma, 10 mg/kg, male mice, read-out: AUC0-24
assay metric: AUC(0-t)
Provide a numeric answer, followed by its unit.

These recorded examples may help you get a feel for the data.
- chemical string: "Cc1cc(NC(=O)[C@H](CCCN)NC(=O)[C@@H]2Cc3ccccc3CN2C(=O)CCC(=O)c2ccccc2)ccc1Cl"
  value: "0.06 µM·h"
- chemical string: "NCC[C@H](NC(=O)[C@@H]1Cc2ccccc2CN1C(=O)CCC(=O)c1ccccc1)C(=O)Nc1ccc(Cl)c(Cl)c1"
  value: "4.3 µM·h"
- chemical string: "Cc1cc(NC(=O)[C@H](CCNC(C)C)NC(=O)[C@@H]2Cc3ccccc3CN2C(=O)CCC(=O)c2ccccc2)ccc1Cl"
  value: "4.9 µM·h"
- chemical string: "NCCCC[C@H](NC(=O)[C@@H]1Cc2ccccc2CN1C(=O)CCC(=O)c1ccccc1)C(=O)Nc1ccc(Cl)c(F)c1"
  value: "0.53 µM·h"
- chemical string: "Cc1cc(NC(=O)[C@H](CCN)NC(=O)[C@@H]2Cc3ccccc3CN2C(=O)CCC(=O)c2ccccc2)c(F)cc1Cl"
  value: "6.2 µM·h"

Shift focus to the following entry.
Request: Return reported AUC(0-t); argument: `Cc1ccc(NC(=O)[C@H](CCN)NC(=O)[C@@H]2Cc3ccccc3CN2C(=O)CCC(=O)c2ccccc2)cc1C`
Result: 0.8 µM·h
